Hey, just so you know, these numbers are from patent US20210363269A1.

# System Under Test: T1, human SIRP-α v2 (human)
# T1 construct: also called Human v2; Human V2
# T1 sequence (chain, as listed by the source limits assumed): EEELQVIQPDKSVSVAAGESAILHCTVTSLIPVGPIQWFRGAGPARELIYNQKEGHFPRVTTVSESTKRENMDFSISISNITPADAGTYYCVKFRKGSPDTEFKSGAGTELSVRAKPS
# Test Protocol: SPR
Quick reference: koff of the listed items.
Write down the numeric answer in s⁻¹ and omit the unit.

[[record]]
binder = "Hum1/AB27_HC_wt (antibody, V domains shown) VH: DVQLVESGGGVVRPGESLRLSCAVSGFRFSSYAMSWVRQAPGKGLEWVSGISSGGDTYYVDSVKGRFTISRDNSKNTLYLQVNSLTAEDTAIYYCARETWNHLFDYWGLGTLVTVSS VL: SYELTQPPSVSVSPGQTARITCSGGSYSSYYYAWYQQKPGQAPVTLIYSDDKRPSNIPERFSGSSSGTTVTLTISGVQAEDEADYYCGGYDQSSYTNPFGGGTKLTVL"
result_value = 0.000292


Next:
// Hum3/AB66_HC_wt (antibody, V domains shown) VH: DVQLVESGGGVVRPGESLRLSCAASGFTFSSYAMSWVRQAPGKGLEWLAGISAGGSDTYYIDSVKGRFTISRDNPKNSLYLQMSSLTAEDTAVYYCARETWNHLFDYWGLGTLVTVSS VL: SYELTQPPSVSVSPGQTARITCSGGDYYSTYYAWYQQKPGQAPVTVIHSDDKRPSDIPERFSGSSSGTTVTLTISGVQAEDEADYYCGGYDGRTYINTFGGGTKLTVL : koff value = 0.000287
